# measuredTarget: T1, GDF15-HIS (ACROBiosystems, CAT #: GD5-H5149) (human, UniProt Q99988 197-308)
# T1 construct: Bought protein; also called GDF15 (ACROBiosystems, GD5-H5149); human GDF15; not shown: His tag
# T1 sequence (looked up): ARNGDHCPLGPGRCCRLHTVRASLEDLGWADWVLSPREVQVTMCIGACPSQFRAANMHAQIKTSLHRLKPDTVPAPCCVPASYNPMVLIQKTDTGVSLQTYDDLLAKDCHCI
# assayText: BLI (ForteBio Octet), antibody immobilised, GDF15 200-6.25 nM
assayReadout: kon (M⁻¹ s⁻¹)
Output spec: scalar in M⁻¹ s⁻¹, unitless text.

Before answering, review these 2 worked examples.
[
  {
    "binder": "A3 (murine anti-34G9) (antibody, V domains shown, Purified murine hybridoma antibody) VH: QVQLKESGPGILQPSQTLSLTCSFSGFSLNTAGMTVGWIRQPSGKGLEWLAHIWWNDDKYYNPALKSRLTISKDTSNNQIFLEIASVVTADTATYYCTRIATMNYAMDYWGQGTSVTVSS VL: DIVMTQAPASLAVSLGQRATISCRASQSVSTSSFSYMHWYQQKPGQPPKLLIKYASNLESGVPARFSGSGSGTDFTLNIHPVEEEDTATYYCQHSWEIPYTFGGGTKLEIK",
    "reading": 805000
  },
  {
    "binder": "A2 (murine anti-53A8) (antibody, V domains shown, Purified murine hybridoma antibody; also called murine antibody 53A8) VH: QVQLKESGPGILQPSQTLSLTCSFSGFSLSTSGMGVGWIRQPSGKGLEWLAHIRWDDVKRYNPALKSRLTISKDTSSSQIFLKIASVDTADTATYYCAQMAWDWFAYWGQGTLVTVSA VL: DIVMTQAQKFMSTSVGDRVSVTCKASQNVDTDVAWYQQKPGQSPKALIYSASYRYSGVPDRFTGSGSGTDFTLTITNVQSEDLAEYFCHQYNSYPTFGGGTKLEIK",
    "reading": "2.28e+06"
  }
]

Now consider a different binder.
Sample A5 (murine anti-50G3) (antibody, V domains shown, Purified murine hybridoma antibody) VH: QVTLKESGPGILKPSQTLSLTCSFSGFSLSTSGMGVGWIRQPSGKGLEWLAHIWWNDDKYYNPSLKSHLTISKDTSRNQVFLMITSVDTADTATYYCARGAYDFFDYWGQGTTLTVSS VL: DIVMTQAQNFMSTSVGDRVSVTCKASQNVDTNVAWYQQKPGQSPKALIYSASYRYSGVPDRFTGSGSGTDFTLTISNVQSDDLADYFCQQYNTYPYTFGGGTKLEIK — what was its kon? 2.02e+06

Reference for the values: patent US20250092124A1
